protocolSummary: endothelial E-selectin expression blockers – imaging, HUVEC, immunofluorescence, MLSMR starter and 10KST1 sets, primary screen (AID 487);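 further: signal is fraction of cell area covered by stained E-selectin grains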
conditionNotes: HUVEC TNFalpha-induced E-selectin immunofluorescence imaging, at 2 µM; hits give high values
Answer False if inhibition is under -40%, and True if it is -40% or more.

Query block: Please indicate if the recorded inhibition for "Nn1c(SCC(=O)Nc2ccccc2)nnc1-c1cccnc1" meets or exceeds -40%.
Result block: True

Query block: Identify whether the reported inhibition of the following molecule is -40% or greater: "CCc1nnc(NC(=O)CCC(=O)Nc2ccccc2)s1"
Result block: True

Query block: Record "Nc1sccc1C(=O)c1ccccc1" ; criterion: inhibition no lower than -40%. Met?
Result block: False

Query block: Determine whether this molecule has inhibition no lower than -40%: "O=C(Nc1nc(-c2ccc(S(=O)(=O)N3CCCCCC3)cc2)cs1)c1cccs1"
Result block: True

Query block: Is inhibition at least -40%? Consider COc1cc(C(Nc2ccc3c(c2)OCO3)C(=O)NC2CCCCC2)cc(OC)c1OC (stereo unspecified)
Result block: True

Query block: Answer whether inhibition of "Cc1cc(Cl)c(S(=O)(=O)N2CCN(c3ccc(F)cc3)CC2)cc1OCC(N)=O" is greater than or equal to -40%.
Result block: True

Query block: Reported inhibition at or above -40%? "O=S(=O)(NCCc1ccncc1)c1cc(Br)ccc1F"
Result block: False

Query block: Textbook exercise: given the entry "O=C(Nc1cc(C(F)(F)F)ccc1Cl)C1CCN(c2nnc(-n3cccc3)s2)CC1" , state whether its inhibition is greater than or equal to -40%.
Result block: False

Query block: Assess whether reported inhibition for COc1ccc(C2=NOC(C(=O)NCc3ccc(F)cc3)C2)cc1OC (stereo unspecified) sits at -40% or higher.
Result block: False

Query block: Entry "CCOC(=O)c1ccc(-n2c(C)nc3c(cnn3-c3ccccc3C)c2=O)cc1" : is its inhibition no less than -40%?
Result block: True

Query block: Decide: inhibition of "Cc1cccc(N(CC(=O)Nc2ccc(CC#N)cc2)S(C)(=O)=O)c1" >= -40%?
Result block: False
